Provide the reported Hepatotoxicity (cytolytic) of each item.
test.parameters: human, Liver
One number for each entry.

NC(N)=Nc1nc(CSCCC(N)=NS(N)(=O)=O)cs1 [FAMOTIDINE] ... 4
CC(=O)[C@@]1(O)CC[C@H]2[C@@H]3C[C@H](C)C4=CC(=O)CC[C@]4(C)[C@H]3CC[C@@]21C ... 1
CC(C)n1c(/C=C/C(O)CC(O)CC(=O)O)c(-c2ccc(F)cc2)c2ccccc21 (centres undefined) [FLUVASTATIN] ... 3
Cc1c(F)c(N2CCNC(C)C2)cc2c1c(=O)c(C(=O)O)cn2C1CC1 (centres undefined) [GREPAFLOXACIN] ... 0
CC(C)c1cccc(C(C)C)c1O [PROPOFOL] ... 1
CN(C)CCOC(c1ccccc1)c1ccccc1 [DIPHENHYDRAMINE] ... 0

Give Hepatotoxicity (cytolytic) for all compounds that follow.
1. CCc1cc(C(N)=S)ccn1 [ETHIONAMIDE]
2. COc1cc(Cc2cnc(N)nc2N)cc(OC)c1OC.Cc1cc(NS(=O)(=O)c2ccc(N)cc2)no1 [CO-TRIMOXAZOLE]
3. O=C1CN(/N=C/c2ccc([N+](=O)[O-])o2)C(=O)N1 [NITROFURANTOIN]

Key:
7
17
9

* * *

test.parameters: human, serum, 4383 h
Provide the reported Hepatotoxicity (chronic liver disease) of each item.
Answers are plain numbers.

Look over these answered cases.
O=C1CC2(CCCC2)CC(=O)N1CCCCN1CCN(c2ncccn2)CC1 ... 0
Cc1ccc(S(=O)(=O)NC(=O)NC2CCCCC2)cc1N [METAHEXAMIDE] ... 0
CCCCCCCCCCCCCCCCSCC(COC)COP(=O)([O-])OCC[N+](C)(C)C (stereo not given) ... 0
O=C1CN=C(c2ccccc2)c2c(sc3c2CCCC3)N1 ... 3
Nc1ccc(S(=O)(=O)Nc2ccccn2)cc1 ... 0
CCCc1cc(C(N)=S)ccn1 [PROTIONAMIDE] ... 0
CCc1[nH]c(=O)[nH]c1C(=O)c1ccncc1 ... 0
C=CC(N)CCC(=O)O (stereo not given) ... 0
NC(=O)N1c2ccccc2C=Cc2ccccc21 [CARBAMAZEPINE] ... 4

Now, please, on to the next compound.
Exercise: Identify measured Hepatotoxicity (chronic liver disease) associated with `NC(=O)c1csc([C@@H]2O[C@H](CO)[C@@H](O)[C@H]2O)n1`
Key: 0

* * *

test.parameters: human
// boundary case: Hepatotoxicity (cytolytic) equal to 1 maps to f; strictly smaller maps to t

C[C@]12C=CC(=O)C=C1CC[C@@H]1[C@@H]2C(=O)C[C@@]2(C)[C@H]1CC[C@]2(O)C(=O)CO ... t

Exercise: Report whether reported Hepatotoxicity (cytolytic) is lower than 1 (strictly) for `CN1C[C@H](C(=O)N[C@]2(C)O[C@@]3(O)[C@@H]4CCCN4C(=O)[C@H](Cc4ccccc4)N3C2=O)C=C2c3cccc4[nH]cc(c34)C[C@H]21`
Key: t

Exercise: Report whether reported Hepatotoxicity (cytolytic) is lower than 1 (strictly) for `Nc1nc2[nH]cc(CCc3ccc(C(=O)N[C@@H](CCC(=O)O)C(=O)O)cc3)c2c(=O)[nH]1`
Key: t

Exercise: Report whether reported Hepatotoxicity (cytolytic) is lower than 1 (strictly) for `CCOC(OCC)C(=O)OCC(=O)[C@]1(O)Cc2c(O)c3c(c(O)c2[C@@H](O[C@H]2C[C@H](N)[C@H](O)[C@H](C)O2)C1)C(=O)c1c(OC)cccc1C3=O`
Key: t

Exercise: Report whether reported Hepatotoxicity (cytolytic) is lower than 1 (strictly) for `CCOC(=O)[C@H](CCc1ccccc1)N[C@@H](C)C(=O)N1CCC[C@H]1C(=O)O`
Key: f

Exercise: Report whether reported Hepatotoxicity (cytolytic) is lower than 1 (strictly) for `CC(C)[C@@H](CC[C@@H](C)[C@H]1CC[C@H]2[C@@H]3[C@H](O)C[C@H]4C[C@@H](NCCCNCCCCN)CC[C@]4(C)[C@H]3CC[C@]12C)OS(=O)(=O)O`
Key: f

Exercise: Report whether reported Hepatotoxicity (cytolytic) is lower than 1 (strictly) for `CN(C)[C@@H]1C(O)=C(C(N)=O)C(=O)[C@@]2(O)C(O)=C3C(=O)c4c(O)cccc4[C@@](C)(O)[C@H]3[C@H](O)[C@@H]12`
Key: t

Exercise: Report whether reported Hepatotoxicity (cytolytic) is lower than 1 (strictly) for CC(C)NNC(=O)COc1ccc(Cl)cc1 [IPROCLOZIDE]
Key: f

Exercise: Report whether reported Hepatotoxicity (cytolytic) is lower than 1 (strictly) for `C[C@H]1COc2c(N3CCN(C)CC3)c(F)cc3c(=O)c(C(=O)O)cn1c23.C[C@H]1COc2c(N3CCN(C)CC3)c(F)cc3c(=O)c(C(=O)O)cn1c23.O`
Key: f

Exercise: Report whether reported Hepatotoxicity (cytolytic) is lower than 1 (strictly) for `CC[C@H]1OC(=O)[C@H](C)[C@@H](O[C@H]2C[C@@](C)(OC)[C@@H](O)[C@H](C)O2)[C@H](C)[C@@H](O[C@@H]2O[C@H](C)C[C@H](N(C)C)[C@H]2O)[C@](C)(O)C[C@@H](C)/C(=N\OCOCCOC)[C@H](C)[C@@H](O)[C@]1(C)O`
Key: f
